- methodSummary: Cytotoxicity against mouse EL4 cells assessed as reduction in cell viability after 72 hrs by MTT assay
- Format: functional, cell-based
- appliedConditions: EL4, 72 h
testReadout: IC50 (µM)

{"molecule": "C/C(=N/NC(=O)OC(C)(C)C)C(c1cn(Cc2ccccc2)c2ccccc12)c1cn(Cc2ccccc2)c2ccccc12", "measuredNumber": 5.56}
{"molecule": "COc1ccc2[nH]cc(C(/C(=N\\O)c3ccc(Br)cc3)c3c[nH]c4ccc(OC)cc34)c2c1", "measuredNumber": 9.29}
{"molecule": "C/C(=N/NC(=O)OC(C)(C)C)C(c1c[nH]c2ccc(O)cc12)c1c[nH]c2ccc(O)cc12", "measuredNumber": 15.4}
{"molecule": "C/C(=N/NS(=O)(=O)c1ccc(C)cc1)C(c1c[nH]c2ccccc12)c1c[nH]c2ccccc12", "measuredNumber": 18.9}

---

- System: EL4
- methodSummary: Selectivity index, ratio of IC50 for mouse S17 cells to IC50 for mouse EL4 cells
- Type: functional
testReadout: Ratio IC50

{"molecule": "COc1ccc2[nH]cc(C(/C(=N\\O)c3ccc(Br)cc3)c3c[nH]c4ccc(OC)cc34)c2c1", "testReadout": "Ratio IC50", "measuredNumber": 1.91}
{"molecule": "C/C(=N/NC(=O)OC(C)(C)C)C(c1c[nH]c2ccc(O)cc12)c1c[nH]c2ccc(O)cc12", "testReadout": "Ratio IC50", "measuredNumber": 6.49}
{"molecule": "C/C(=N/NS(=O)(=O)c1ccc(C)cc1)C(c1c[nH]c2ccccc12)c1c[nH]c2ccccc12", "testReadout": "Ratio IC50", "measuredNumber": 1.32}
{"molecule": "C/C(=N/NC(=O)OC(C)(C)C)C(c1c[nH]c2ccccc12)c1c[nH]c2ccccc12", "testReadout": "Ratio IC50", "measuredNumber": 3.27}
{"molecule": "C/C(=N/NC(=O)OC(C)(C)C)C(c1c[nH]c2ccc(Br)cc12)c1c[nH]c2ccc(Br)cc12", "testReadout": "Ratio IC50", "measuredNumber": 1.84}
{"molecule": "C/C(=N/NC(=O)OC(C)(C)C)C(c1cn(Cc2ccccc2)c2ccccc12)c1cn(Cc2ccccc2)c2ccccc12", "testReadout": "Ratio IC50", "measuredNumber": 1.38}
{"molecule": "C/C(=N/Nc1ccc([N+](=O)[O-])cc1[N+](=O)[O-])C(c1c[nH]c2ccccc12)c1c[nH]c2ccccc12", "testReadout": "Ratio IC50", "measuredNumber": 1.45}
{"molecule": "Cc1ccc2[nH]cc(C(/C(=N\\O)c3ccc(Br)cc3)c3c[nH]c4ccc(C)cc34)c2c1", "testReadout": "Ratio IC50", "measuredNumber": 3.56}
{"molecule": "O/N=C(/c1ccc(Br)cc1)C(c1c[nH]c2ccc(O)cc12)c1c[nH]c2ccc(O)cc12", "testReadout": "Ratio IC50", "measuredNumber": 1.4}

---

As shown below, each of these molecules has a reported pIC50 value.
- methodSummary: Cytotoxicity against mouse EL4 cells assessed as reduction in cell viability after 72 hrs by MTT assay
- Assay type: functional, cell-based
- appliedConditions: EL4, 72 h
pIC50: −log10 of the molar value.

{"molecule": "O/N=C(/c1ccc(Br)cc1)C(c1c[nH]c2ccc(O)cc12)c1c[nH]c2ccc(O)cc12", "pIC50": 4.81}
{"molecule": "O/N=C(/c1ccc(Br)cc1)C(c1c[nH]c2ccc(Br)cc12)c1c[nH]c2ccc(Br)cc12", "pIC50": 5.12}
{"molecule": "Cc1ccc2[nH]cc(C(/C(=N\\O)c3ccc(Br)cc3)c3c[nH]c4ccc(C)cc34)c2c1", "pIC50": 5.49}
{"molecule": "C/C(=N/NC(=O)OC(C)(C)C)C(c1c[nH]c2ccc(Br)cc12)c1c[nH]c2ccc(Br)cc12", "pIC50": 4.65}

---

- methodSummary: Cytotoxicity against mouse S17 cells assessed as reduction in cell viability after 72 hrs by MTT assay
- Type: toxicity, cell-based
- appliedConditions: mouse, S17 cells
Response field label: string, one of True (IC50 at 72 h strictly below 20 µM) or False.

{"compound": "O/N=C(/c1ccc(Br)cc1)C(c1c[nH]c2ccc(O)cc12)c1c[nH]c2ccc(O)cc12", "classAssignment": "False"}
{"compound": "C/C(=N/NC(=O)OC(C)(C)C)C(c1c[nH]c2ccccc12)c1c[nH]c2ccccc12", "classAssignment": "False"}
{"compound": "Cc1ccc2[nH]cc(C(/C(=N\\O)c3ccc(Br)cc3)c3c[nH]c4ccc(C)cc34)c2c1", "classAssignment": "True"}
{"compound": "C/C(=N/NC(=O)OC(C)(C)C)C(c1c[nH]c2ccc(Br)cc12)c1c[nH]c2ccc(Br)cc12", "classAssignment": "False"}
{"compound": "COc1cc([C@@H]2c3cc4c(cc3[C@@H](O[C@@H]3O[C@@H]5CO[C@@H](C)O[C@H]5[C@H](O)[C@H]3O)[C@H]3COC(=O)[C@H]23)OCO4)cc(OC)c1O [ETOPOSIDE]", "classAssignment": "True"}
{"compound": "C/C(=N/NS(=O)(=O)c1ccc(C)cc1)C(c1c[nH]c2ccccc12)c1c[nH]c2ccccc12", "classAssignment": "False"}
{"compound": "C/C(=N/Nc1ccc([N+](=O)[O-])cc1[N+](=O)[O-])C(c1c[nH]c2ccccc12)c1c[nH]c2ccccc12", "classAssignment": "True"}
{"compound": "COc1ccc2[nH]cc(C(/C(=N\\O)c3ccc(Br)cc3)c3c[nH]c4ccc(OC)cc34)c2c1", "classAssignment": "True"}
{"compound": "C/C(=N/NC(=O)OC(C)(C)C)C(c1cn(Cc2ccccc2)c2ccccc12)c1cn(Cc2ccccc2)c2ccccc12", "classAssignment": "True"}

---

As shown below, each of these compounds has a reported Ratio IC50 value.
- Test system: THP-1
- methodSummary: Selectivity index, ratio of IC50 for mouse S17 cells to IC50 for human THP1 cells
- Format: functional

{"molecule": "COc1ccc2[nH]cc(C(/C(=N\\O)c3ccc(Br)cc3)c3c[nH]c4ccc(OC)cc34)c2c1", "measurementQualifier": "<", "Ratio IC50": 1}
{"molecule": "C/C(=N/NC(=O)OC(C)(C)C)C(c1c[nH]c2ccc(O)cc12)c1c[nH]c2ccc(O)cc12", "measurementQualifier": "=", "Ratio IC50": 3.5}
{"molecule": "C/C(=N/NC(=O)OC(C)(C)C)C(c1cn(Cc2ccccc2)c2ccccc12)c1cn(Cc2ccccc2)c2ccccc12", "measurementQualifier": "<", "Ratio IC50": 1}
{"molecule": "C/C(=N/NC(=O)OC(C)(C)C)C(c1c[nH]c2ccccc12)c1c[nH]c2ccccc12", "measurementQualifier": "=", "Ratio IC50": 1.67}

---

- methodSummary: Cytotoxicity against human U937 cells assessed as reduction in cell viability after 72 hrs by MTT assay
- Type: functional, cell-based
- appliedConditions: U-937, 72 h
pIC50: −log10 of the molar value.
As shown below, each of these molecules has a reported pIC50 value.

{"molecule": "O/N=C(/c1ccc(Br)cc1)C(c1c[nH]c2ccc(O)cc12)c1c[nH]c2ccc(O)cc12", "pIC50": 4.89}
{"molecule": "C/C(=N/NC(=O)OC(C)(C)C)C(c1c[nH]c2ccc(Br)cc12)c1c[nH]c2ccc(Br)cc12", "pIC50": 4.55}
{"molecule": "C/C(=N/NC(=O)OC(C)(C)C)C(c1c[nH]c2ccc(O)cc12)c1c[nH]c2ccc(O)cc12", "pIC50": 3.80}
{"molecule": "COc1cc([C@@H]2c3cc4c(cc3[C@@H](O[C@@H]3O[C@@H]5CO[C@@H](C)O[C@H]5[C@H](O)[C@H]3O)[C@H]3COC(=O)[C@H]23)OCO4)cc(OC)c1O [ETOPOSIDE]", "pIC50": 5.96}
{"molecule": "C/C(=N/Nc1ccc([N+](=O)[O-])cc1[N+](=O)[O-])C(c1c[nH]c2ccccc12)c1c[nH]c2ccccc12", "pIC50": 4.88}
{"molecule": "C/C(=N/NC(=O)OC(C)(C)C)C(c1cn(C)c2ccccc12)c1cn(C)c2ccccc12", "pIC50": 4.85}
{"molecule": "C/C(=N/NC(=O)OC(C)(C)C)C(c1c[nH]c2ccccc12)c1c[nH]c2ccccc12", "pIC50": 4.60}
{"molecule": "Cc1ccc2[nH]cc(C(/C(=N\\O)c3ccc(Br)cc3)c3c[nH]c4ccc(C)cc34)c2c1", "pIC50": 5.01}
{"molecule": "C/C(=N/NS(=O)(=O)c1ccc(C)cc1)C(c1c[nH]c2ccccc12)c1c[nH]c2ccccc12", "pIC50": 4.64}
{"molecule": "COc1ccc2[nH]cc(C(/C(=N\\O)c3ccc(Br)cc3)c3c[nH]c4ccc(OC)cc34)c2c1", "pIC50": 4.74}
{"molecule": "O/N=C(/c1ccc(Br)cc1)C(c1c[nH]c2ccc(Br)cc12)c1c[nH]c2ccc(Br)cc12", "pIC50": 4.73}
